Biological target: human Edg-2 receptor (LPA1 receptor) (Homo sapiens)
Sequence (Q92633 whole entry): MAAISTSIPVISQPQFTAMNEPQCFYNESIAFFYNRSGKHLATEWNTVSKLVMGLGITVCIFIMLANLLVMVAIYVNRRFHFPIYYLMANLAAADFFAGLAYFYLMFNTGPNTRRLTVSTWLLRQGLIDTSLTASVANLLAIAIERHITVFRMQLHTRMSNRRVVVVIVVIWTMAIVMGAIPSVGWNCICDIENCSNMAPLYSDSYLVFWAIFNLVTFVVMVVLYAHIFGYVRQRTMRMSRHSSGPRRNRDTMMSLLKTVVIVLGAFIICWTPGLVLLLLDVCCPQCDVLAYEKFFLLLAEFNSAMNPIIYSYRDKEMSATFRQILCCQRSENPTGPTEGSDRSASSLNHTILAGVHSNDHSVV
Assay: Edg-2 receptor inhibition by FLIPR calcium fluorescence measurement (LPA-mediated calcium liberation)
Conditions: CHO cells stably overexpressing human Edg-2 receptor; LPA 18:1 100 nM; fluo-4 fluorescence; triplicate; read-out: Inhibitory concentrations IC50 for inhibition of the Edg-2 receptor
Hi there, I'd appreciate the recorded IC50 for every entry that follows.

The examples below pair each entry with its known result.
[[record]]
compound = "COc1ccc(C(=O)NC2(C(=O)O)Cc3ccccc3C2)cc1OCCc1cccc(C2CC2)c1"
measurement = "< 100 nM"

[[record]]
compound = "COc1ccc(C(=O)NC2(C(=O)O)Cc3ccccc3C2)cc1OCCC1CCN(Cc2ccccc2)CC1"
measurement = "1000 to 30000 nM"

[[record]]
compound = "Cc1cccc(CCOc2cc(C(=O)NC3(C(=O)O)Cc4ccccc4C3)ccc2C(C)O)c1 (stereo not drawn)"
measurement = "100 to 1000 nM"

[[record]]
compound = "Cc1cccc(CCNc2cc(C(=O)NC3(C(=O)O)Cc4ccccc4C3)ccc2O)c1"
measurement = "100 to 1000 nM"

[[record]]
compound = "N#Cc1ccc(C(=O)NC2(C(=O)O)Cc3ccccc3C2)cc1N1CCC(c2ccccc2)C1 (stereo not drawn)"
measurement = "1000 to 30000 nM"


Lookup: Using the record for `COc1ccc(C(=O)NC2(C(=O)O)Cc3ccccc3C2)cc1-c1cccc(NS(=O)(=O)N(C)C)c1` , report its IC50.
Found: < 100 nM
